Give measured viability, T/C for each item. Keep answers brief.
- Test system: NCI-H226 complex tumor spheroids, viability
- method_summary: Anticancer human tumor NCI-H226 cell line growth inhibition;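 note: spheroids exposed to compound for 7 days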;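 for viability, T/C: 100% = DMSO vehicle control viability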
- measurement_parameters: second compound 0.0003 µM; first compound 0.949 µM; stronger effect = lower value
Numeric only. Scale: %

What value of measured viability, T/C is listed for Cc1sc2c(c1C)C(c1ccc(Cl)cc1)=NC(CC(=O)Nc1ccc(O)cc1)c1nnc(C)n1-2 (centres undefined) + COc1cc2c(cc1O)CCNC21CSC2c3c(OC(C)=O)c(C)c4c(c3C(COC1=O)N1C(O)C3Cc5cc(C)c(OC)c(O)c5C(C21)N3C)OCO4 ?
72.6

Same for Cn1ncnc1[C@H]1c2n[nH]c(=O)c3cc(F)cc(c23)N[C@@H]1c1ccc(F)cc1 + COc1cc2c(cc1O)CCNC21CSC2c3c(OC(C)=O)c(C)c4c(c3C(COC1=O)N1C(O)C3Cc5cc(C)c(OC)c(O)c5C(C21)N3C)OCO4
119

Same for O=C(c1cc(Cc2n[nH]c(=O)c3ccccc23)ccc1F)N1CCN(C(=O)C2CC2)CC1 + COc1cc2c(cc1O)CCNC21CSC2c3c(OC(C)=O)c(C)c4c(c3C(COC1=O)N1C(O)C3Cc5cc(C)c(OC)c(O)c5C(C21)N3C)OCO4
126

Same for CNCc1ccc(-c2cc(-c3nc(-c4ccc(S(=O)(=O)C(C)C)cc4)cnc3N)on2)cc1 + COc1cc2c(cc1O)CCNC21CSC2c3c(OC(C)=O)c(C)c4c(c3C(COC1=O)N1C(O)C3Cc5cc(C)c(OC)c(O)c5C(C21)N3C)OCO4
82.9

###

- Tested on: NCI-H226 complex tumor spheroids, viability
- method_summary: Anticancer human tumor NCI-H226 cell line growth inhibition;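 note: spheroids exposed to compound for 7 days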;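 for viability, T/C: 100% = DMSO vehicle control viability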
- measurement_parameters: second compound 100 µM; first compound 0.1 µM; stronger effect = lower value
- Description: Multicellular complex tumor spheroid response to DNA repair inhibitors in combination with DNA-damaging drugs This study explores the anticancer activities of DNA-damaging drugs and inhibitors of DNA damage repair, both as single agents and in combinations. […] Twenty-six patient-derived or established malignant cell lines were evaluated representing sarcoma, melanoma, small cell lung cancer (SCLC), non-small cell lung cancer (NSCLC), as well as bladder, ovarian and pancreatic cancers. […]
reported_endpoint: viability, T/C

What value of measured viability, T/C is listed for COc1ccc([C@@H](O)c2cc(-c3ncnc4cc(N5CCOCC5)ccc34)c(F)cc2Cl)nn1 + Cn1nnc2c(C(N)=O)ncn2c1=O ?
107%

Same for Cc1cc(C)c(CNC(=O)c2cc(-c3ccc(CN4CCOCC4)cc3)cc3c2cnn3C2CCCC2)c(=O)[nH]1 + Cn1nnc2c(C(N)=O)ncn2c1=O
114%

Same for COc1cc(C)[nH]c(=O)c1CN1CCc2c(Cl)cc(C(OC)C3COC3)c(Cl)c2C1=O (stereo unspecified) + Cn1nnc2c(C(N)=O)ncn2c1=O
132%

Same for [2H]c1nc(C)nc([2H])c1-c1cc(NC[C@@H](C)c2cccc3c(C(=O)NC)ccnc23)ncn1 + Cn1nnc2c(C(N)=O)ncn2c1=O
129%

Same for CC1COCCN1c1cc(-c2ccnn2C)c2ccnc(-c3ccn[nH]3)c2n1 (stereo unspecified) + Cn1nnc2c(C(N)=O)ncn2c1=O
107%

Same for CC(C)n1c(=O)n(C)c2cnc3cc(F)c(-c4ccc(OCCCN5CCCCC5)nc4)cc3c21 + Cn1nnc2c(C(N)=O)ncn2c1=O
115%

###

- System: NCI-H226 complex tumor spheroids, viability
- method_summary: Anticancer human tumor NCI-H226 cell line growth inhibition;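 note: spheroids exposed to compound for 7 days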
- measurement_parameters: curve of first compound; second compound 100 µM
reported_endpoint: IC50

What value of measured IC50 is listed for Cc1cc(C)c(CNC(=O)c2cc(-c3ccc(CN4CCOCC4)cc3)cc3c2cnn3C2CCCC2)c(=O)[nH]1 + Cn1nnc2c(C(N)=O)ncn2c1=O ?
> 10000 nM

Same for Cn1ncnc1[C@H]1c2n[nH]c(=O)c3cc(F)cc(c23)N[C@@H]1c1ccc(F)cc1 + Cn1nnc2c(C(N)=O)ncn2c1=O
> 3000 nM

Same for CC1COCCN1c1cc(-c2ccnn2C)c2ccnc(-c3ccn[nH]3)c2n1 (stereo not drawn) + Cn1nnc2c(C(N)=O)ncn2c1=O
2410 nM

###

Give measured viability, T/C for each item. Keep answers brief.
- Tested on: NCI-H226 complex tumor spheroids, viability
- method_summary: Anticancer human tumor NCI-H226 cell line growth inhibition;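 note: spheroids exposed to compound for 7 days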;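 for viability, T/C: 100% = DMSO vehicle control viability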
- measurement_parameters: second compound 0.003 µM; first compound 10 µM; stronger effect = lower value
Numeric only. Scale: %

What value of measured viability, T/C is listed for CC1COCCN1c1cc(-c2ccnn2C)c2ccnc(-c3ccn[nH]3)c2n1 (stereo not given) + COc1cc2c(cc1O)CCNC21CSC2c3c(OC(C)=O)c(C)c4c(c3C(COC1=O)N1C(O)C3Cc5cc(C)c(OC)c(O)c5C(C21)N3C)OCO4 ?
0.49

Same for CC(C)n1c(=O)n(C)c2cnc3cc(F)c(-c4ccc(OCCCN5CCCCC5)nc4)cc3c21 + CC[C@@]1(O)C(=O)OCc2c1cc1n(c2=O)Cc2cc3c(CN(C)C)c(O)ccc3nc2-1
24.5

Same for COc1cc(C)[nH]c(=O)c1CN1CCc2c(Cl)cc(C(OC)C3COC3)c(Cl)c2C1=O (stereo not given) + COc1cc2c(cc1O)CCNC21CSC2c3c(OC(C)=O)c(C)c4c(c3C(COC1=O)N1C(O)C3Cc5cc(C)c(OC)c(O)c5C(C21)N3C)OCO4
0.69

Same for Cc1cc(C)c(CNC(=O)c2cc(-c3ccc(CN4CCOCC4)cc3)cc3c2cnn3C2CCCC2)c(=O)[nH]1 + CC[C@@]1(O)C(=O)OCc2c1cc1n(c2=O)Cc2cc3c(CN(C)C)c(O)ccc3nc2-1
108

Same for [2H]c1nc(C)nc([2H])c1-c1cc(NC[C@@H](C)c2cccc3c(C(=O)NC)ccnc23)ncn1 + CC[C@@]1(O)C(=O)OCc2c1cc1n(c2=O)Cc2cc3c(CN(C)C)c(O)ccc3nc2-1
88.1

###

- Test system: NCI-H226 complex tumor spheroids, viability
- method_summary: Anticancer human tumor NCI-H226 cell line growth inhibition;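 note: spheroids exposed to compound for 7 days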;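 for viability, T/C: 100% = DMSO vehicle control viability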
- measurement_parameters: second compound 94.9 pM; first compound 0.1 µM; stronger effect = lower value
- Procedure: Multicellular complex tumor spheroid response to DNA repair inhibitors in combination with DNA-damaging drugs This study explores the anticancer activities of DNA-damaging drugs and inhibitors of DNA damage repair, both as single agents and in combinations. […] Twenty-six patient-derived or established malignant cell lines were evaluated representing sarcoma, melanoma, small cell lung cancer (SCLC), non-small cell lung cancer (NSCLC), as well as bladder, ovarian and pancreatic cancers. […]
reported_endpoint: viability, T/C (%)
Numeric only. Scale: %

What value of measured viability, T/C is listed for COc1cc(C)[nH]c(=O)c1CN1CCc2c(Cl)cc(C(OC)C3COC3)c(Cl)c2C1=O (stereo unspecified) + COc1cc2c(cc1O)CCNC21CSC2c3c(OC(C)=O)c(C)c4c(c3C(COC1=O)N1C(O)C3Cc5cc(C)c(OC)c(O)c5C(C21)N3C)OCO4 ?
113

Same for [2H]c1nc(C)nc([2H])c1-c1cc(NC[C@@H](C)c2cccc3c(C(=O)NC)ccnc23)ncn1 + COc1cc2c(cc1O)CCNC21CSC2c3c(OC(C)=O)c(C)c4c(c3C(COC1=O)N1C(O)C3Cc5cc(C)c(OC)c(O)c5C(C21)N3C)OCO4
101

Same for CC1COCCN1c1cc(-c2ccnn2C)c2ccnc(-c3ccn[nH]3)c2n1 (stereo unspecified) + COc1cc2c(cc1O)CCNC21CSC2c3c(OC(C)=O)c(C)c4c(c3C(COC1=O)N1C(O)C3Cc5cc(C)c(OC)c(O)c5C(C21)N3C)OCO4
112

Same for CC(C)n1c(=O)n(C)c2cnc3cc(F)c(-c4ccc(OCCCN5CCCCC5)nc4)cc3c21 + COc1cc2c(cc1O)CCNC21CSC2c3c(OC(C)=O)c(C)c4c(c3C(COC1=O)N1C(O)C3Cc5cc(C)c(OC)c(O)c5C(C21)N3C)OCO4
102

Same for COc1ccc([C@@H](O)c2cc(-c3ncnc4cc(N5CCOCC5)ccc34)c(F)cc2Cl)nn1 + COc1cc2c(cc1O)CCNC21CSC2c3c(OC(C)=O)c(C)c4c(c3C(COC1=O)N1C(O)C3Cc5cc(C)c(OC)c(O)c5C(C21)N3C)OCO4
105

Same for Cc1cc(C)c(CNC(=O)c2cc(-c3ccc(CN4CCOCC4)cc3)cc3c2cnn3C2CCCC2)c(=O)[nH]1 + COc1cc2c(cc1O)CCNC21CSC2c3c(OC(C)=O)c(C)c4c(c3C(COC1=O)N1C(O)C3Cc5cc(C)c(OC)c(O)c5C(C21)N3C)OCO4
100

###

Give measured viability, T/C for each item. Keep answers brief.
- Test system: NCI-H226 complex tumor spheroids, viability
- method_summary: Anticancer human tumor NCI-H226 cell line growth inhibition;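 note: spheroids exposed to compound for 7 days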;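 for viability, T/C: 100% = DMSO vehicle control viability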
- measurement_parameters: second compound 100 µM; first compound 3 µM; stronger effect = lower value
Numeric only. Scale: %

What value of measured viability, T/C is listed for CNCc1ccc(-c2cc(-c3nc(-c4ccc(S(=O)(=O)C(C)C)cc4)cnc3N)on2)cc1 + Cn1nnc2c(C(N)=O)ncn2c1=O ?
0.35

Same for Cn1ncnc1[C@H]1c2n[nH]c(=O)c3cc(F)cc(c23)N[C@@H]1c1ccc(F)cc1 + Cn1nnc2c(C(N)=O)ncn2c1=O
93.5

Same for Cc1sc2c(c1C)C(c1ccc(Cl)cc1)=NC(CC(=O)Nc1ccc(O)cc1)c1nnc(C)n1-2 (centres undefined) + Cn1nnc2c(C(N)=O)ncn2c1=O
42.5

Same for O=C(c1cc(Cc2n[nH]c(=O)c3ccccc23)ccc1F)N1CCN(C(=O)C2CC2)CC1 + Cn1nnc2c(C(N)=O)ncn2c1=O
99.3
